Taken from patent US20240116985A1.

// values below are reported IC50
study-target: full-length beta-Catenin (Uniprot ID P35222) (Homo sapiens (Human)) (UniProt P35222)
assay-notes: fluorescence polarization competition; displacement of 5FAM-TCF4(10-53) from full-length beta-catenin
Starred links: 1 amine or outer side, 2 acyl side, 3 side chain; linkers in the order of their positions; H or OH if unused. Positions of bridges follow the written chain, without caps; N, C: chain ends. Non-standard residues stand in square brackets, D forms with d. Primed or numbered codes have the meaning given here. PyrS2″ = (S)-3-amino-1-((pent-4-en-1-yloxy)carbonyl)pyrrolidine-3-carboxylic acid (stapling residue), C=CCCCOC(=O)N1CC[C@@](N[*:1])(C(=O)[*:2])C1; B5(5) = 2,2-bis(4-pentenyl)glycine, 2-amino-2-(pent-4-en-1-yl)hept-6-enoic acid (stitching residue), C=CCCCC(CCCC=C)(N[*:1])C(=O)[*:2]; PyrS2 = (S)-3-amino-1-((pent-4-en-1-yloxy)carbonyl)pyrrolidine-3-carboxylic acid, C=CCCCOC(=O)N1CC[C@@](N[*:1])(C(=O)[*:2])C1; B5(27) = 2-amino-2-(pent-4-en-1-yl)hept-6-enoic acid (two alkene side-chain arms), C=CCCCC(CCCC=C)(N[*:1])C(=O)[*:2]; B5(3) = 2,2-bis(4-pentenyl)glycine (stitching residue), C=CCCCC(CCCC=C)(N[*:1])C(=O)[*:2]; Bta = N[C@@H](Cc1csc2ccccc12)C(=O)O; αAllylPro = C=CC[C@@]1(C(=O)O)CCCN1; tBuAla = CC(C)(C)C[C@H](N)C(=O)O; 3Thi = N[C@@H](Cc1ccsc1)C(=O)O; hSer = N[C@@H](CCO)C(=O)O
endpoint: IC50

Ac-[αAllylPro]DY[B5(5)]DDAAFL[PyrS2″][3Thi][Bta][hSer]-NH2 (staple 1-4, 4-11) [I-1512: Ac-PL3-Asp-Tyr-B5-Asp-Asp-Ala-Ala-Phe-Leu-PyrS2-3Thi-BztA-Hse-NH2] | 12 nM
Ac-[αAllylPro]D[tBuAla][B5(3)]DYAAFN[PyrS2″][3Thi][Bta]Q-NH2 (staple 1-4, 4-11) [I-842] | 34 nM
Ac-[αAllylPro]D[tBuAla][B5(27)]DDAAFL[PyrS2][3Thi][Bta]V-NH2 (staple 1-4, 4-11) [I-1495] | 24 nM
